Biological target: UniProt P29275
Sequence (P29275 whole entry): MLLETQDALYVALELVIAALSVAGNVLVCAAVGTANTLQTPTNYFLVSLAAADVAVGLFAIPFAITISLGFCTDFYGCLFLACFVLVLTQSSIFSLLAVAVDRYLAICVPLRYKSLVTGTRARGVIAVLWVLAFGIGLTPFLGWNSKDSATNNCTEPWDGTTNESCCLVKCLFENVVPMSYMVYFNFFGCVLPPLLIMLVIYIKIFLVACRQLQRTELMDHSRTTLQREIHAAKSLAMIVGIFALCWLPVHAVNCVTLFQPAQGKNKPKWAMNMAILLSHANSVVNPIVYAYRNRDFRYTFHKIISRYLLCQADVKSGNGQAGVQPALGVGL
Assay: Cellular in vitro reporter gene test for A2b receptor activity (CHO-K1, CRE-luciferase, NECA stimulation)
Format: cell-based
Settings: recombinant CHO-K1 cell line, CRE-luciferase reporter, antagonism of EC50 concentration of NECA; in some cases means of several determinations, rounded to two significant figures; read-out: A2b receptor IC50
pIC50: −log10 of the molar value.
If the reported pIC50 equals or exceeds 8, assign 1. If not, assign 0.

1) CCOCCn1c(=O)c2c(C)c(CN3CCNC(=O)C3=O)sc2n(CCOC)c1=O	0
2) COC(=O)N=C1NCCN1Cc1sc2c(c1C)c(=O)n(C(C)C(F)(F)F)c(=O)n2CCC(F)(F)F (racemic)	1

// inclusive: pIC50 at least 8? input: COCCn1c(=O)c2c(C)c(Cn3[nH]ccc3=O)sc2n(CC2CCCO2)c1=O (single isomer, unassigned) [Example 291]
0

Evaluate COC(C)(C)Cn1c(=O)c2c(C)c(CN3CCN(C)C3=O)sc2n(CCC(F)(F)F)c1=O : pIC50 at minimum 8?
0
